Each recorded value in this set is attributed to paper PMC9742495.

- tested_on: Sar (PXO_RS20790) (Xanthomonas oryzae pv. oryzae PXO99A, UniProt A0A0K0GPT9 1-242)
- protocol: EMSA
recorded_endpoint: binding result

{"columns": ["binder", "recorded_endpoint", "result"],
 "data": [
  ["hrpG motif (dsDNA) DNA 1: TTTTGTCCTGGCGTCGGGCGCCAGGCGTCGGCGTC DNA 2: GACGCCGACGCCTGGCGCCCGACGCCAGGACAAAA", "binding result", "binds"],
  ["Sar probe (dsDNA) DNA 1: GGCGTCGAGCGCCAGGC DNA 2: GCCTGGCGCTCGACGCC", "binding result", "binds"],
  ["hrpX motif (dsDNA) DNA 1: GCTGCATACAATCGTGTGCGCCAGCGAGCTCGGCG DNA 2: CGCCGAGCTCGCTGGCGCACACGATTGTATGCAGC", "binding result", "binds"]
]}
